test: Single dose oral pharmacokinetics; format: in vivo, BALB/c mice; conditions: female, BALB/c, mouse, plasma; 20 mg/kg oral; read-out: concentration 24 hours after oral dosing
Endpoint name: concentration at 24 h
Give the value; after it, write the unit.

Per the records, this compound ( CNC(=O)c1cc(Oc2ccc(NC(=O)Nc3ccc(C(F)(F)C(F)(F)F)cc3)c(F)c2)ccn1 ) has concentration at 24 h equal to 7 µM

====

Reported half-life values for the following compounds.
assay: Single dose oral pharmacokinetics; type: in vivo, BALB/c mice; settings: female, BALB/c, mouse, plasma; 20 mg/kg oral gavage
Kindly provide the numeric value in h only, without the unit symbol.

Query CNC(=O)c1cc(Oc2ccc(NC(=O)Nc3ccc(C(F)(F)C(F)(F)F)cc3)c(F)c2)ccn1 yields half-life of 9.38

Moving on to the next compound.
In plain terms, CNC(=O)c1cc(Oc2ccc(NC(=O)Nc3ccc(Cl)c(C(F)(F)F)c3)cc2)ccn1 [sorafenib, reference compound] has a documented half-life of 8

====

system: MYC-Tp53 tumor organoid allografts; assay: MYC-Tp53 tumor organoid allografts; type: in vivo, C57BL/6J mice; details: 30 mg/kg daily oral gavage
Endpoint name: activity in MYC-Tp53 allografts

Per the records, this compound ( CNC(=O)c1cc(Oc2ccc(NC(=O)Nc3ccc(Cl)c(C(F)(F)F)c3)cc2)ccn1 [sorafenib, reference compound] ) has activity in MYC-Tp53 allografts equal to better activity

// recorded activity in MYC-Tp53 allografts for CNC(=O)c1cc(Oc2ccc(NC(=O)Nc3ccc(Cl)c(C(F)(F)F)c3)c(F)c2)ccn1 [regorafenib] : better activity

Reported activity in MYC-Tp53 allografts of COc1cc2nccc(Oc3ccc(NC(=O)NC4CC4)c(Cl)c3)c2cc1C(N)=O [lenvatinib] : better activity
